# assaySystem: integrin α4β7 (Homo sapiens, UniProt P13612+P26010)
# Sequence (P13612 34-977 limits assumed): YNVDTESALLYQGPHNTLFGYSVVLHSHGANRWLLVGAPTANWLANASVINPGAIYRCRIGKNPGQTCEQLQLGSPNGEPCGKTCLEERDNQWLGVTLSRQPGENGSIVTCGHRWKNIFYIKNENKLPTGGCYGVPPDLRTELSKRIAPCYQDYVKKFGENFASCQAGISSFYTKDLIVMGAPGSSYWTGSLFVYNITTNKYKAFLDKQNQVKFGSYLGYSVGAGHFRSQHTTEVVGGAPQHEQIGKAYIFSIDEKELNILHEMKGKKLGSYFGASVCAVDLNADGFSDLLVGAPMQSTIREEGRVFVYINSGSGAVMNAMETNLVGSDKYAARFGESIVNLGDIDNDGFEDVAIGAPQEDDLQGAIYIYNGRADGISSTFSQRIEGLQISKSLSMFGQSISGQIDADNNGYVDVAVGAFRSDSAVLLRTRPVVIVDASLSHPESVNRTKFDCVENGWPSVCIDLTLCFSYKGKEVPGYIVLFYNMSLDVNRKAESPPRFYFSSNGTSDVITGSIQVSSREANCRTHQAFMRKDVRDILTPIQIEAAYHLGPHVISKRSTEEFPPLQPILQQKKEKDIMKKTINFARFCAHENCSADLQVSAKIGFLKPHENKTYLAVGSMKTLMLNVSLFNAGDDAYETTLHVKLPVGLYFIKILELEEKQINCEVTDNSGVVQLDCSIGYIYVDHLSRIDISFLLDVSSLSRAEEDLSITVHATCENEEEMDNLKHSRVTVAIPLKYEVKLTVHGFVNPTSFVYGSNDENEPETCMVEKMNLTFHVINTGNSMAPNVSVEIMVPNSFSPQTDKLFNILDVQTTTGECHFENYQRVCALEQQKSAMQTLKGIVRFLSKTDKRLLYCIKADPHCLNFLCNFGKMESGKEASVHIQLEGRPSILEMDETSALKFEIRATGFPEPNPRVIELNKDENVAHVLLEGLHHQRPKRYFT
# Sequence (P26010 20-723 limits assumed): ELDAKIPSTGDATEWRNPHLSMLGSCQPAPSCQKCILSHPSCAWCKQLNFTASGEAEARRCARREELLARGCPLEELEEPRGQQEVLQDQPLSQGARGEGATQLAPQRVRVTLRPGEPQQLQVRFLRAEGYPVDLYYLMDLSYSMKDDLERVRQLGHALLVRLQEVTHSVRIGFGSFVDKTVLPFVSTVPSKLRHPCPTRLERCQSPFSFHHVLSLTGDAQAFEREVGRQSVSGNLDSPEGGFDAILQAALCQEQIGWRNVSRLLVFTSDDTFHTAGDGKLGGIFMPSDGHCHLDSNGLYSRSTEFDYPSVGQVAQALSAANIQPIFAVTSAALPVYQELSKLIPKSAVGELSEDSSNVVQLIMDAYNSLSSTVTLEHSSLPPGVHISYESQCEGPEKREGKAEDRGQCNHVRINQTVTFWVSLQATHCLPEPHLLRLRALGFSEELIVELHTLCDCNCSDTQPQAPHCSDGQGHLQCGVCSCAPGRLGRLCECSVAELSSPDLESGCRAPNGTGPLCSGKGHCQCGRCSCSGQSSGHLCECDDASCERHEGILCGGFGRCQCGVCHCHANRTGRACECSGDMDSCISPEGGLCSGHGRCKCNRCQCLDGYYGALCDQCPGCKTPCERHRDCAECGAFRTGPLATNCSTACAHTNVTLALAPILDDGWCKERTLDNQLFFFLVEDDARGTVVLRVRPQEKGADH
# protocolSummary: Integrin α4β7—MAdCAM-1 competition assay (ELISA)
# Type: binding
# conditionLabel: ratio a4b1 ELISA IC50 / a4b7 ELISA IC50
valueKind: Selectivity ELISA
Just the number, please, no unit after it.

CC(C)C[C@@H]1NC(=O)[C@H](Cc2ccc(O)cc2)NC(=O)[C@@H]2CCCN2[C@H](C(=O)NC(C)(C)C)[C@H](C)NC(=O)[C@H](C(C)(C)S)NC(=O)[C@H](CC(=O)O)NC1=O [Compound 55]	1.1

Give its Selectivity ELISA value. Item: CC(C)C[C@@H]1NC(=O)C[C@H](CCCCN)NC(=O)C2(Cc3ccccc3C2)NC(=O)[C@@H]2CCCN2[C@H](C(=O)NC(C)(C)C)[C@H](C)NC(=O)[C@H]([C@@H](C)O)NC(=O)[C@H](CC(=O)O)NC1=O [Compound 288]
12.2

Give its Selectivity ELISA value. Item: CC(C)C[C@@H]1NC(=O)[C@H](Cc2cccnc2)NC(=O)[C@@H]2C[C@@H](O)CN2[C@H](C(=O)NC(C)(C)C)[C@H](C)NC(=O)[C@H]([C@@H](C)O)NC(=O)[C@H](CC(=O)O)NC1=O [Compound 44]
2.3

Give its Selectivity ELISA value. Item: CC(C)C[C@@H]1NC(=O)[C@H]2CCCCN2C(=O)[C@H](Cc2cccc3ccccc23)NC(=O)[C@@H]2CCCN2[C@H](C(=O)NC(C)(C)C)[C@H](C)NC(=O)[C@H]([C@@H](C)O)NC(=O)[C@H](CC(=O)O)NC1=O [Compound 143]
2.1

These measurements were taken from patent US11072616B2.
